# measured on: T1, recombinant ICAM-1 Fc chimera (UniProt P05362 28-480, limits assumed)
# T1 construct: amine-coupled to the BIAcore chip; not shown: Fc part, not described
# assay procedure: BIAcore; Kon calculated by Koff/KD
Hi! Could you tag entries with kon below 100000 M⁻¹ s⁻¹ as T, and those at or above as F? Much appreciated.

binder | class label
recombinant soluble αL I-domain L161C/F299C (locked open, intermediate affinity) (receptor) GNVDLVFLFDGSMSLQPDEFQKILDFMKDVMKKCSNTSYQFAAVQFSTSYKTEFDFSDYVKRKDPDALLKHVKHMLLLTNTFGAINYVATEVFREELGARPDATKVLIIITDGEATDSGNIDAAKDIIRYIIGIGKHFQTKESQETLHKFASKPASEFVKILDTFEKLKDLCTELQKKIY | F
recombinant soluble αL I-domain L161C/T300C (locked open, intermediate affinity) (receptor) GNVDLVFLFDGSMSLQPDEFQKILDFMKDVMKKCSNTSYQFAAVQFSTSYKTEFDFSDYVKRKDPDALLKHVKHMLLLTNTFGAINYVATEVFREELGARPDATKVLIIITDGEATDSGNIDAAKDIIRYIIGIGKHFQTKESQETLHKFASKPASEFVKILDTFEKLKDLFCELQKKIY | F
recombinant soluble αL I-domain stabilized in the open conformation (K287C/K294C), G128-Y307, E. coli (receptor, introduced disulfide C287-C294, numbers as printed, probably mature αL numbering; also called open I-domain; soluble open I-domain) GNVDLVFLFDGSMSLQPDEFQKILDFMKDVMKKLSNTSYQFAAVQFSTSYKTEFDFSDYVKRKDPDALLKHVKHMLLLTNTFGAINYVATEVFREELGARPDATKVLIIITDGEATDSGNIDAAKDIIRYIIGIGKHFQTKESQETLHKFASKPASEFVCILDTFECLKDLFTELQKKIY | F
recombinant soluble αL I-domain K160C/F299C (locked open, intermediate affinity) (receptor) GNVDLVFLFDGSMSLQPDEFQKILDFMKDVMKCLSNTSYQFAAVQFSTSYKTEFDFSDYVKRKDPDALLKHVKHMLLLTNTFGAINYVATEVFREELGARPDATKVLIIITDGEATDSGNIDAAKDIIRYIIGIGKHFQTKESQETLHKFASKPASEFVKILDTFEKLKDLCTELQKKIY | F
recombinant soluble αL I-domain E284C/E301C (locked open) (receptor) GNVDLVFLFDGSMSLQPDEFQKILDFMKDVMKKLSNTSYQFAAVQFSTSYKTEFDFSDYVKRKDPDALLKHVKHMLLLTNTFGAINYVATEVFREELGARPDATKVLIIITDGEATDSGNIDAAKDIIRYIIGIGKHFQTKESQETLHKFASKPASCFVKILDTFEKLKDLFTCLQKKIY | F
recombinant soluble αL I-domain L289C/K294C (locked closed) (receptor) GNVDLVFLFDGSMSLQPDEFQKILDFMKDVMKKLSNTSYQFAAVQFSTSYKTEFDFSDYVKRKDPDALLKHVKHMLLLTNTFGAINYVATEVFREELGARPDATKVLIIITDGEATDSGNIDAAKDIIRYIIGIGKHFQTKESQETLHKFASKPASEFVKICDTFECLKDLFTELQKKIY | T
